assay: Human liver microsome stability / intrinsic clearance; assay type: in vitro ADME
assay-metric: Human liver microsome stability

Fc1cccc(COC2CCN(Cc3ncn4ccccc34)CC2)c1    not as stable
Fc1cccc(COC2CCN(Cc3cn4ccccc4n3)CC2)c1    stable
Fc1ccc(COC2CCN(Cc3cn4ccccc4n3)CC2)cc1F    stable
Fc1cc(COC2CCN(Cc3ncc4ccccn34)CC2)ccc1Cl    not as stable

----------
assay: Mouse liver microsome stability / intrinsic clearance; type: in vitro ADME; settings: mouse, liver microsomes
So basically: CLint scaled at 90 mL/min/kg or higher? That is TRUE. Lower than 90 mL/min/kg? That is FALSE.

Fc1ccc(CO[C@H]2CCCN(Cc3cn4ccccc4n3)C2)cc1F [Compound 8i]    TRUE

Can Cc1nc(CN2CCC(OCc3cccc(C(F)(F)F)c3)CC2)c2ccccn12 [Compound 9i] be said to have CLint scaled at or above 90 mL/min/kg?
TRUE

Assess whether reported CLint scaled for Fc1ccc(COC2CCN(Cc3cc4ccc(Cl)cc4[nH]3)CC2)cc1F [Compound 9y] sits at 90 mL/min/kg or higher.
FALSE

Is it the case that Fc1ccc(COC2CCN(Cc3ccc4[nH]cnc4c3)CC2)cc1F [Compound 9n] has CLint scaled reaching or exceeding 90 mL/min/kg?
TRUE
